The origin of these recorded values is PubChem BioAssay.

assay: modulators of HCV replicon luciferase signal, primary screen, HCV replication inhibitor project, Huh7 cells, luciferase reporter (AID 1109); conditions: 48 h, higher = more signal;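 further: huh7 hepatoma cells harbouring a luciferase neomycin HCV replicon reporter; luciferase luminescence as measure of HCV replicon replication; test concentration not given here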
Attribute: z-score
Answer using only a numeral; do not append any unit.

1. CO[C@H]1O[C@H](CO)[C@@H](OC(=O)Nc2ccc(Oc3ccccc3)cc2)[C@H](OC(=O)Nc2ccccc2)[C@H]1OC(=O)Nc1ccccc1 | -2.88
2. CC(C)OC(=O)CC(=O)CC(O)c1ccc(C#N)cc1 (stereo not drawn) | -0.259
3. CCOC(=O)C1=CC[C@@H](c2ccccc2)N(S(=O)(=O)c2ccc(C)cc2)[C@H]1C(=O)OCC | -3.08
4. CC(C)CNC(=O)[C@@H]1c2ccccc2C(=O)N(Cc2cc(C(F)(F)F)cc(C(F)(F)F)c2)[C@H]1c1ccc(CO)cc1 | -0.195
5. C=C[C@@H](COC(C)=O)N(Cc1ccccc1[N+](=O)[O-])S(=O)(=O)c1ccc(Br)cc1 | -1.86
6. CC(C)C[C@@H]1NC(=O)[C@H]2C[C@@H](C(=O)NCCCCCCNC(=O)CS)[C@@H](c3cccc(OCCO)c3)N2C1=O | -0.117
7. O=C1OCC=C[C@H]2OC34C=CCN(c5ccc6ccccc6c5)C(=O)[C@H]3N(CCCO)C(=O)[C@@H]4[C@@H]12 (stereo partly drawn) | -0.805
8. [N-]=[N+]=NCc1ccccc1C[C@]1(C(=O)NCCN2CCOCC2)N=C(c2ccc(OCCCO)cc2)O[C@H]1c1ccccc1N=[N+]=[N-] | -1.76

Okay, now this compound:
Inquiry: Sample C=CCNC(=O)[C@@H]1[C@H]2C(=O)O[C@H](c3ccccc3)[C@H](c3ccccc3)N2[C@H](c2ccc(OCCO)cc2)[C@@]12C(=O)Nc1ccccc12 — what was its z-score?
Reply text: -1.72
